System: kochia (Kochia scoparia)
Test: Test A preemergence, visual plant response rating
Type: in vivo
Conditions: 125 g ai/ha, preemergence; 0 to 100 scale, 0 no effect, 100 complete control
Measured quantity: Kochia plant response rating

Challenge: Given CON=C(c1c(O)c(C)nn(C)c1=O)c1cccc2cc(Br)ccc12 , respond with its Kochia plant response rating.
Response given: 10

Challenge: Give the value of Kochia plant response rating reported for the following: CON=C(c1cccc(C(F)(F)F)c1)c1c(O)c(C)nn(C)c1=O
Response given: 0

Challenge: Name the recorded Kochia plant response rating of the item C#CCO/N=C(/c1c(O)c(C)nn(C)c1=O)c1ccc(F)c2ccccc12 in your answer.
Response given: 10

Challenge: Provide measured Kochia plant response rating value, entry: CO/N=C(\c1ccccc1C#N)c1c(O)c(C)nn(C)c1=O
Response given: 0

Challenge: Return Kochia plant response rating (reported value) for this compound: CCCO/N=C(\c1c(O)c(C)nn(C)c1=O)c1cccc2ccccc12
Response given: 0

Challenge: Identify measured Kochia plant response rating corresponding to CO/N=C(/c1ccccc1F)c1c(O)c(C)nn(C)c1=O
Response given: 0

Challenge: Give the reported Kochia plant response rating for this compound. CON=C(c1cc(Cl)ccc1Cl)c1c(O)c(C)nn(C)c1=O
Response given: 60

Challenge: Read off the recorded Kochia plant response rating for CO/N=C(\c1c(C)cccc1F)c1c(O)c(C)nn(C)c1=O
Response given: 0

Challenge: Recall and state the measured Kochia plant response rating for CON=C(c1c(O)c(C)nn(C)c1=O)c1ccc(C)c2ccccc12 .
Response given: 0

Challenge: Note down Kochia plant response rating recorded for CON=C(c1cc(Cl)ccc1C)c1c(O)c(C)nn(C)c1=O
Response given: 0

Challenge: Return reported Kochia plant response rating. Input compound: CCO/N=C(\c1c(O)c(C)nn(C)c1=O)c1ccc(F)c2ccccc12
Response given: 10

Challenge: Please give the documented Kochia plant response rating of CCO/N=C(/c1c(O)c(Cl)nn(C)c1=O)c1cccc2ccccc12
Response given: 100

Challenge: Respond only with Kochia plant response rating recorded for C=CCc1ccccc1C(=NOC)c1c(O)c(C)nn(C)c1=O
Response given: 0

Challenge: Retrieve Kochia plant response rating measured for CON=C(c1cccc(C)c1)c1c(O)c(Cl)nn(C)c1=O and print it.
Response given: 30

Challenge: Query Kochia plant response rating for CON=C(c1c(O)c(C)nn(C)c1=O)c1cccc2ccoc12
Response given: 0

Challenge: // Input: CO/N=C(/c1cscc1C)c1c(O)c(C)nn(C)c1=O . Output its Kochia plant response rating only.
Response given: 0

Challenge: Look up Kochia plant response rating of C=CCO/N=C(\c1c(O)c(C)nn(C)c1=O)c1ccc(F)c2ccccc12 and report it.
Response given: 20

Challenge: Return Kochia plant response rating (reported value) for this compound: CON=C(c1cc(C)cs1)c1c(O)c(C)nn(C)c1=O (mixture of isomers)
Response given: 0

Challenge: Please indicate Kochia plant response rating recorded for C#CCO/N=C(\c1c(O)c(C)nn(C)c1=O)c1cccc2ccccc12
Response given: 20

----------
Test system: barnyardgrass (Echinochloa crus-galli)
Assay: Test A postemergence, visual plant response rating
Assay type: in vivo
Details: 500 g ai/ha, postemergence; 0 is no effect, 100 is complete control
Barnyardgrass plant response rating (0 to 100 scale) strictly less than 30 = Satisfied. Otherwise Not satisfied.

Challenge: I'd appreciate it if you could check whether CON=C(c1cccc(F)c1)c1c(O)c(C)nn(C)c1=O [Compound 64] has Barnyardgrass plant response rating (0 to 100 scale) smaller than 30.
Response given: Satisfied

Challenge: Say whether its Barnyardgrass plant response rating (0 to 100 scale) is strictly beneath 30. Entry: CON=C(c1c(O)c(C)nn(C)c1=O)c1cccc2ccoc12 [Compound 60]
Response given: Satisfied

Challenge: Decide: Barnyardgrass plant response rating (0 to 100 scale) of CO/N=C(/c1cscc1C)c1c(O)c(C)nn(C)c1=O [Compound 140] strictly below 30?
Response given: Satisfied

Challenge: Criterion: Barnyardgrass plant response rating (0 to 100 scale) strictly below 30. Is it met by CCO/N=C(/c1cccc(Cl)c1)c1c(O)c(C)nn(C)c1=O [Compound 9] ?
Response given: Satisfied

Challenge: Does the reported Barnyardgrass plant response rating (0 to 100 scale) of CO/N=C(/c1ccccc1C#N)c1c(O)c(C)nn(C)c1=O [Compound 77] stay below 30?
Response given: Satisfied

Challenge: Find out if reported Barnyardgrass plant response rating (0 to 100 scale) for CCO/N=C(/c1ccc(C)cc1)c1c(O)c(C)nn(C)c1=O [Compound 16] is less than 30
Response given: Satisfied

Challenge: Bench note: check whether CON=C(c1cccc(C(F)(F)F)c1)c1c(O)c(C)nn(C)c1=O [Compound 56] shows Barnyardgrass plant response rating (0 to 100 scale) below 30
Response given: Satisfied

Challenge: Below 30 on Barnyardgrass plant response rating (0 to 100 scale)? Entry CON=C(c1sccc1C)c1c(O)c(C)nn(C)c1=O [Compound 134]
Response given: Satisfied

Challenge: Just wondering, is Barnyardgrass plant response rating (0 to 100 scale) of CO/N=C(/c1c(O)c(C)nn(C)c1=O)c1ccc(OC)c2ccccc12 [Compound 142] below 30?
Response given: Satisfied

Challenge: Find out if reported Barnyardgrass plant response rating (0 to 100 scale) for CON=C(c1cccc(C2CC2)c1)c1c(O)c(C)nn(C)c1=O [Compound 123] is less than 30
Response given: Not satisfied

Challenge: Criterion: Barnyardgrass plant response rating (0 to 100 scale) strictly below 30. Is it met by CON=C(c1c(O)c(C)nn(C)c1=O)c1csc2ccccc12 (single isomer, unassigned) [Compound 46] ?
Response given: Satisfied

Challenge: A record lists CCC(=O)Oc1c(C)nn(C)c(=O)c1C(=NOC)c1cccc2ccccc12 [Compound 49] . Is its Barnyardgrass plant response rating (0 to 100 scale) below 30?
Response given: Not satisfied

Challenge: Consider CCO/N=C(\c1c(O)c(C)nn(C)c1=O)c1ccc(F)c2ccccc12 [Compound 85] . Does its Barnyardgrass plant response rating (0 to 100 scale) lie strictly below 30?
Response given: Not satisfied

Challenge: Quick check: does Cc1ccccc1/C(=N/OC(C)C)c1c(O)c(C)nn(C)c1=O [Compound 19] have Barnyardgrass plant response rating (0 to 100 scale) under 30?
Response given: Not satisfied

Challenge: Decide: Barnyardgrass plant response rating (0 to 100 scale) of CCCO/N=C(/c1c(O)c(C)nn(C)c1=O)c1cccc2ccccc12 [Compound 81] strictly below 30?
Response given: Not satisfied

Reference source for all entries: patent US20210045385A1
